Target: Rgg144 (recombinant, Streptococcus pneumoniae D39, SPD_0144) (Streptococcus pneumoniae D39)
Test: fluorescence polarisation
No end group written: not given here.
endpoint: Kd (µM)
State just the number; it will be interpreted in µM.

Item under review: SAWVIVIPFLTNL (also: FITC label, position not given here) [FITC-labeled SHP144 E15A] . Reported Kd?
3.3

What Kd value was documented for this binder, SEWAIVIPFLTNL (also: FITC label, position not given here) [FITC-labeled SHP144 V17A] ?
9.7

What value of Kd has been recorded for this entry: SEWVIVAPFLTNL (also: FITC label, position not given here) [FITC-labeled SHP144 I20A]
23.5

Given the binder SEWVIVIAFLTNL (also: FITC label, position not given here) [FITC-labeled SHP144 P21A] , what is its reported Kd?
1.7

Would you kindly share the measured Kd for SEWVIVIPFLANL (also: FITC label, position not given here) [FITC-labeled SHP144 T24A] ?
3.3

Which Kd value is on record for SEWVIVIPFATNL (also: FITC label, position not given here) [FITC-labeled SHP144 L23A] ?
4.3

Field request: Kd | item: AEWVIVIPFLTNL (also: FITC label, position not given here) [FITC-labeled SHP144 S14A]
8.1

Where do these numbers come from? They come from paper PMC9233744.
